# Assay: Plasma pharmacokinetics of phenolic metabolites after intake of the GCPE nutraceutical (LC-MS-QToF)
# Condition: week 8, GCPE nutraceutical with 300 mg hydroxycinnamic acids, mean ± SEM, n = 9
Measurement Label: Cmax

{"columns": ["Compound", "Measurement Label", "Endpoint Result"],
 "data": [
  ["COc1cc(C=CC(=O)O)ccc1OS(=O)(=O)O [FA-4′-sulfate, 3′-Methoxycinnamic acid-4′-sulfate]", "Cmax", "17 nM"],
  ["COc1cc(/C=C/C(=O)O[C@@H]2C[C@@](O)(C(=O)O)C[C@@H](O)[C@@H]2O)ccc1O [5-Feruloylquinic acid]", "Cmax", "34 nM"],
  ["COc1ccc(CCC(=O)O)cc1OS(=O)(=O)O [DHiFA-3′-sulfate]", "Cmax", "110 nM"]
]}
